Listed next: entries and their corresponding LD50.
System: Mus musculus
testMethodNotes: Acute toxicity in ip dosed Swiss albino mouse xenografted with human HepG2 cells assessed as mortality measured up to two weeks
Format: organism-based
conditionsUsed: in vivo

Q. Given the molecule CC(=O)O[C@H]1O[C@@H](Sc2nc(N)c(C#N)c(-c3ccc4ccccc4c3)c2C#N)[C@H](OC(C)=O)[C@@H](OC(C)=O)[C@@H]1OC(C)=O , what is its reported LD50?
A. 0.06 mg/kg

Q. What would you report for CC(=O)O[C@H]1O[C@@H](Sc2nc(N)c(C#N)c(-c3ccccc3)c2C#N)[C@H](OC(C)=O)[C@@H](OC(C)=O)[C@H]1OC(C)=O ?
A. 0.065 mg/kg

Q. What would you report for COc1ccc(-c2c(C#N)c(N)nc(S[C@@H]3O[C@H](O)[C@H](O)[C@H](O)[C@H]3O)c2C#N)cc1 ?
A. 0.115 mg/kg

Q. What would you report for CC(=O)O[C@H]1O[C@@H](SC2=C(C#N)C(c3ccccc3)C(C#N)=C(N)N2)[C@H](OC(C)=O)[C@@H](OC(C)=O)[C@H]1OC(=O)O (stereo partly specified) ?
A. 0.07 mg/kg

Q. What would you report for COc1ccc(C2C(C#N)=C(N)NC(S[C@@H]3O[C@H](O)[C@H](O)[C@H](O)[C@H]3O)=C2C#N)cc1 (stereo partly specified) ?
A. 0.06 mg/kg

Continuing:
Q. Given the molecule CC(=O)O[C@H]1O[C@@H](SC2=C(C#N)C(c3ccc([N+](=O)[O-])cc3)C(C#N)=C(N)N2)[C@H](OC(C)=O)[C@@H](OC(C)=O)[C@@H]1OC(=O)O (stereo partly specified) , what is its reported LD50?
A. 0.085 mg/kg

----------
Test system: Mus musculus
testMethodNotes: Acute toxicity in ip dosed Swiss albino mouse inoculated with human HeLa cells assessed as mortality measured up to two weeks
Format: organism-based
conditionsUsed: in vivo
Listed next: entries and their corresponding LD50.
Please give a number only; it is taken to be in mg/kg.

Illustrative cases are given below, each with its answer.
Q. Request: LD50, test system Mus musculus, entry COc1ccc(-c2c(C#N)c(N)nc(S[C@@H]3O[C@H](OC(C)=O)[C@H](OC(C)=O)[C@H](OC(C)=O)[C@H]3OC(C)=O)c2C#N)cc1
A. 0.07

Q. What would you report for COc1ccc(C2C(C#N)=C(N)NC(S[C@@H]3O[C@H](OC(C)=O)[C@@H](OC(=O)O)[C@H](OC(C)=O)[C@H]3OC(C)=O)=C2C#N)cc1 (stereo partly specified) ?
A. 0.16

Q. What would you report for COc1ccc(-c2c(C#N)c(N)nc(S[C@@H]3O[C@H](O)[C@H](O)[C@H](O)[C@H]3O)c2C#N)cc1 ?
A. 0.13

Q. What would you report for CC(=O)O[C@H]1O[C@@H](Sc2nc(N)c(C#N)c(-c3ccc4ccccc4c3)c2C#N)[C@H](OC(C)=O)[C@@H](OC(C)=O)[C@H]1OC(C)=O ?
A. 0.135

Q. What would you report for COc1ccc(C2C(C#N)=C(N)NC(S[C@@H]3O[C@H](O)[C@@H](O)[C@H](O)[C@H]3O)=C2C#N)cc1 (stereo partly specified) ?
A. 0.095

Now consider a different compound.
Q. Request: LD50, test system Mus musculus, entry CC(=O)O[C@H]1O[C@@H](SC2=C(C#N)C(c3ccc([N+](=O)[O-])cc3)C(C#N)=C(N)N2)[C@H](OC(C)=O)[C@@H](OC(C)=O)[C@@H]1OC(=O)O (stereo partly specified)
A. 0.07
